# Target Or Test System: DNA polymerase iota (Mus musculus, UniProt Q6R3M4)
# Sequence (Q6R3M4 whole entry): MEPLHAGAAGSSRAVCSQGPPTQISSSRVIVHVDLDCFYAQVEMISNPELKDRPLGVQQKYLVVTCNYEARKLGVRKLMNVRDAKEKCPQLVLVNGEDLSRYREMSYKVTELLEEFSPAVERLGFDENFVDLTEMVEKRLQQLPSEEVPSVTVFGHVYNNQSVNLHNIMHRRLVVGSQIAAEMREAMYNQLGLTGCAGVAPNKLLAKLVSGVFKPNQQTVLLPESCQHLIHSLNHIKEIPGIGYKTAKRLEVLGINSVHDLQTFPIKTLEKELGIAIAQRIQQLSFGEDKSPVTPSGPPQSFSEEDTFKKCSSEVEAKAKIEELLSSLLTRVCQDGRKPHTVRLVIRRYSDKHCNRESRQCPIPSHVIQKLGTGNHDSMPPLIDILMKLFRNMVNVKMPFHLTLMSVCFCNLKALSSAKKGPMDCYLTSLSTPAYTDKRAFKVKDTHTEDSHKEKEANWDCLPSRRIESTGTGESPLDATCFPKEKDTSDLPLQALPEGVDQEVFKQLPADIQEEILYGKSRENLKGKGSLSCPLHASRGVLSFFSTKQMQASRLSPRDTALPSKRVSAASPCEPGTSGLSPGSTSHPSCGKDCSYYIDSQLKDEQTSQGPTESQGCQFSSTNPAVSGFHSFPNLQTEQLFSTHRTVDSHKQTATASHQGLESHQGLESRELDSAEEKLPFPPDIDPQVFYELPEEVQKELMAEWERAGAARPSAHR
Recorded Metric: IC50 (µM)
Reply numerically in µM, unit not repeated.

Ask: // Input: COC1=C(C(=O)CC(C)O)C(=O)C(C)(/C=C/C=C/C(C)O)O1 (stereo unspecified) . Output its IC50 only.
Result: 32.5
